Numbers sourced from patent US20110183946A1.

Assay: physchem
Settings: water, thermodynamic from solid
Procedure: Brimonidine and pamoic acid, at a molar ratio of 1:1, were mixed and dispersed in N-methylpyrrolidone (“NMP”). The solution of brimonidine and pamoic acid in NMP was heated while stirring to dissolve brimonidine (the final temperature, typically less than 70° C., was chosen so as not to lose significant amount of solvent). […] The precipitation was allow to proceed; for example, for several hours or overnight. […]
MEASUREMENT LABEL: solubility at 11 days (µg/mL)
Numeric answer only, unit µg/mL assumed.

QUERY: Any idea what solubility at 11 days was measured for Brc1c(NC2=NCCN2)ccc2nccnc12 [brimonidine free base] ?
RESULT: 215

----------
Test: Solubility of various brimonidine complexes in water at the resulting pH
Assay type: physicochemical
Conditions: in water at the resulting pH (pH in column 1 of the same row)
MEASUREMENT LABEL: solubility

QUERY: GET /values?readout=solubility&item= Brc1c(NC2=NCCN2)ccc2nccnc12 [brimonidine free base]
RESULT: 48 to 200 µg/mL
